Tested on: DU-145 prostate
test: NCI-60 one-dose screen, 48 h (100 = growth as untreated, 0 = no growth, -100 = all killed)
assay-setup: 10 µM
About 83,000 compounds went through this panel and 20% of them were active in at least one assay; those are over-represented in the sample as a whole.
// bucketize growth: c1 (below 30%), c2 (30% to below 80%), c3 (80% or more)

Sample answers from the record:
# smiles, label-value
records = [
    ("Nc1cc(-c2cccc(C(=O)NCc3ccc4c(c3)OCO4)c2)ccn1", "c3"),
    ("CCOP(=O)(OCC)O[C@H]1CC[C@]2(C)[C@H]3CC[C@@H]4[C@@H]([C@](C)(O)CCC=C(C)C)CC[C@@]4(C)[C@]3(C)CC[C@H]2C1(C)C", "c2"),
    ("O=C(Cn1cc(CSc2nnc3oc4ccccc4n23)nn1)Nc1cccc(Cl)c1", "c3"),
]

For N#Cc1c(NC(=O)c2ccc(C(F)(F)F)c(Cl)c2)sc2c1CCC(=O)C2 , which growth bin applies?
c1

For COc1ccc(C=CC(=O)c2ccc(-n3c(C)nc4c(cnn4-c4ccccc4)c3=O)cc2)cc1 , which growth bin applies?
c3

For C=C1CC[C@H](C(=C)C)[C@H]2C=C(C)C(=O)C3=C(C(=O)[C@@](C)(O)C3)[C@H]12 , which growth bin applies?
c1

For COc1cccc(-c2ccc(/C=N/NC(=O)c3[nH]c4ccc(Br)cc4c3-c3ccccc3)o2)c1 , which growth bin applies?
c1

For CC(C)(C)c1ccc(NCc2cn(-c3ccc(C(=O)O)cc3)nc2-c2ccc(C#N)cc2)cc1 , which growth bin applies?
c2

For COc1ccc2nc(Cl)c(-c3cc(-c4ccccc4)nc(N)n3)cc2c1 , which growth bin applies?
c2

* * *

System: LOX IMVI melanoma
test: NCI-60 one-dose screen, 48 h (100 = growth as untreated, 0 = no growth, -100 = all killed)
assay-setup: 10 µM
This is part of a sample that, as a whole, favours compounds with a hit. Of some 83,000 tested, about 20% had one in any assay.
growth of -50% or higher: y. Under -50%: n.

# compound, label-value
rows = [
    ("Cc1ccc2nc(-c3ccc(-c4nnc(SCC(=O)Nc5ccc(Cl)cc5)o4)cc3)[nH]c2c1", "y"),
]

Determine whether this compound has growth no lower than -50%: Cc1ccc(/C(CSc2nnc(-c3c[nH]c4ccccc34)n2-c2ccccc2)=N/O)cc1
n

Determine whether this compound has growth no lower than -50%: N#Cc1c(Cl)nc(SCc2ccc(F)cc2)nc1-c1ccc(F)cc1
y

Determine whether this compound has growth no lower than -50%: CC(=O)NS(=O)(=O)c1ccc(NC(=O)CSC2=NC(c3ccccc3)C(C(C)=O)=C(C)N2)cc1 (stereo not drawn)
y

Determine whether this compound has growth no lower than -50%: COc1ccc2[nH]c(=O)c(CSc3nccc(-c4ccc(Cl)cc4)n3)cc2c1
y

Determine whether this compound has growth no lower than -50%: COc1ccc(-c2nc(S(=O)(=O)c3ccc(C)cc3)c(S(=O)(=O)CC(=O)N(C)Cc3ccccc3)o2)cc1
n

* * *

Test system: UO-31 renal
test: NCI-60 one-dose screen, 48 h (100 = growth as untreated, 0 = no growth, -100 = all killed)
assay-setup: 10 µM
Experimental: Growth inhibition of the UO-31 human tumor cell line is measured as a screen for anti-cancer activity. Cells are grown in 96 well plates and exposed to the test compound for 48 hours. Compounds are tested at a single concentration, which is 10^-5 M for most compounds. The reported endpoint is percent growth (GI% or GIPRCNT), where numbers from 0 - 100% represent growth inhibition, and numbers from -100% - 0 represent cell death. For example, a value of 40 represents 60% growth inhibition. […]
The panel holds about 83,000 compounds, 20% with a hit somewhere; the sample as a whole holds those more often.
measurement-name: growth (%)
Give just the numeric value; % need not be written.

Use the examples below as a reference point.
# compound, measurement-name, observed-result
measured = [
    ("CC1=C(c2cc(-c3ccc(Cl)cc3)c(C#N)c(N)n2)C(c2ccccc2)NC(=S)N1 (stereo unspecified)", "growth", 63.5),
    ("O=C(CNc1nc(-c2ccccc2)cs1)Nc1cccc(Cl)c1", "growth", 9.97),
]

What the record says about CC(=O)Nc1nc(-c2ccc(N3CCN(C)CC3)c(NS(=O)(=O)c3cccc4c(N(C)C)cccc34)c2)cs1 : growth is 60
